Cited source: patent US20160200815A1

STUDY_TARGET: T1, hTIM3-Fc murine CC′ loop (human, CC′ loop replaced by mouse TIM-3)
T1 construct: Whole construct: chimeric ECD, linker and human IgG1 Fc; also called hTIM3-Fc CC′ loop chimera
ASSAY_PROCEDURE: ELISA, construct coated on plate
Measured Absorbance at 450 nm, listed per entry for reference.
Express it in A450; write the number only.

// below: answered binders
>  <BINDER>
mAb58 (antibody, V domains shown) VH: QIQLVQSGPELKKPGETVKISCKASGYTFTTYGMSWVKQAPGKGLKLMGWINTYSGAPTYADDFKGRFAFSLETSASAAYLQINNLKNEDTATYFCARKPPHYYVNSFDYWGQGTTLTVSS VL: DIVMTQSPATLSVTPGDRVSLSCRASQSISDYLHWYQQKSHESPRLLIKYASQSISGIPSRFSGSGSGSDFTLSINSVEPEDVGVYYCQNGHSFPYTFGGGTKLEIK

>  <READOUT_TYPE>
Absorbance at 450 nm

>  <NUMERIC_READOUT>
1.39

$$$$
>  <BINDER>
mAb91 (antibody, V domains shown, Mouse hybridoma antibody) VH: DVQFQESGPGLVKPSQSLSLTCSVTGYSITSGYYWNWIRQFPGNKLEWMGYISYDGSNNYNPSLKNRISITRDTSKNQFFLKLNSVTTEDTATYYCGRDGPYYYGSSYGYFDVWGTGTTVTVSS VL: DIVMTQAESSVPVTPGESVSISCRSSKSLLHSNGNTYLYWFLQRPGQSPQLLIHRMSNLASGVPDRFSGSGSGTAFTLRISRVEAEDMGVYYCMQHLEYPCTFGGGTKLEIK

>  <READOUT_TYPE>
Absorbance at 450 nm

>  <NUMERIC_READOUT>
0.502

$$$$
>  <BINDER>
mAb22 (antibody, V domains shown, Mouse hybridoma antibody) VH: EVQLVESGGDLVKPGGSLKLSCAASGFTFSNHGMSWVRQTPDKRLEWVATISSGGSNTYFPDSVKGRFTISRDNVKNSLYLQMSSLKSEDTAMYYCARHGTSMIKEWFAYWGQGTLVTVSA VL: DIVMTQSPVTLSVTPGDRVSLSCRASQSIGDYLHWYQQKSHESPRLLIKYASQSISGIPSRFSGSGSGSDFTLNINSVEPEDVGVYYCQHSHSFPPTFGGGTRLEIK

>  <READOUT_TYPE>
Absorbance at 450 nm

>  <NUMERIC_READOUT>
0.91

$$$$

Next binder, Absorbance at 450 nm to be filled in.
Exercise: Item under review: mAb48 (antibody, V domains shown, Mouse hybridoma antibody) VH: QIQLQQSGPELVTPGTSVKISCKASGYTFTDYYINWVKQRPGQGLEWIGWIYPGSGNTKYNEKFKGKATLTVDTSSSIAYMHLSSLTSEDSAVYFCAGDRFDYWGQGTTLTVSS VL: QIVLTQSPAIMSASPGEKVTLTCSASSGVSSSYLYWYQQKPGSSPKLWIYSTSNLASGVPARFSGSGSGTSYSLTISNMETEDAASYFCHQWSNSPYTFGGGTKLEIK . Reported Absorbance at 450 nm?
Key: 0.247
